System under test: T1, HpRap1B (Hansenula polymorpha DL-1, UniProt W1QDN2 1-576)
T1 sequence: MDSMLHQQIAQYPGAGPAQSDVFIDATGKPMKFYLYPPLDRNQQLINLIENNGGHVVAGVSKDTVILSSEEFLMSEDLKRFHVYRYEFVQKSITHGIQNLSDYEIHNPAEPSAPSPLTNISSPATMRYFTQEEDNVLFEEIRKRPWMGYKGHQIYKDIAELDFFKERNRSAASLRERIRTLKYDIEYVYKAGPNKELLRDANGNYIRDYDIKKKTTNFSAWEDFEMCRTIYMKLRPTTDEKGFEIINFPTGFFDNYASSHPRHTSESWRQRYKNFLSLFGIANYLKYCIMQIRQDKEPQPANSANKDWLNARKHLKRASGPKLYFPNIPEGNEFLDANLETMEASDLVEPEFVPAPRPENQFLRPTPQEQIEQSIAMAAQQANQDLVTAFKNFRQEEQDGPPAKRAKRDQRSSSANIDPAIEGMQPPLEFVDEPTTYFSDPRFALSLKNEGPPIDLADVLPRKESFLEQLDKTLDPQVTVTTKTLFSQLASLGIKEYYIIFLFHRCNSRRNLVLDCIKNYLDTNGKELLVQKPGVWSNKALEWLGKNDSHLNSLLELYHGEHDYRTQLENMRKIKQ
Procedure details: SPR; kinetic fit; equilibrium Kd 65±2; SPR: 10 mM HEPES-NaOH pH 7.5, 150 mM NaCl, 0.5 mM DTT, 0.05% Tween 20, 1 mg/ml BSA, 0.02 mg/ml salmon sperm DNA; competition 2 nM protein with 20 or 200 nM competitor. EMSA: 20 mM HEPES-NaOH pH 7.5, 50 mM NaCl, 0.2 mg/ml BSA, 5% glycerol, 0.1 mg/ml salmon sperm DNA, room temperature
Experimental setup: protein: recombinant; 3' overhang 20 nt on strand 2
Observable: Kd (nM)

binder="VIIrAbs (SPR) (dsDNA) DNA 1: GGCAGGCGGTGTAGGGATGCGGC DNA 2: GCCGCATCCCTACACCGCCTGCCCCTCTACGTCCTCCTGCTCC" observable=Kd val=64

Origin of values: paper PMC6510891
